- tgt: CYP2D6 (Homo sapiens)
- Sequence (P10635 whole entry): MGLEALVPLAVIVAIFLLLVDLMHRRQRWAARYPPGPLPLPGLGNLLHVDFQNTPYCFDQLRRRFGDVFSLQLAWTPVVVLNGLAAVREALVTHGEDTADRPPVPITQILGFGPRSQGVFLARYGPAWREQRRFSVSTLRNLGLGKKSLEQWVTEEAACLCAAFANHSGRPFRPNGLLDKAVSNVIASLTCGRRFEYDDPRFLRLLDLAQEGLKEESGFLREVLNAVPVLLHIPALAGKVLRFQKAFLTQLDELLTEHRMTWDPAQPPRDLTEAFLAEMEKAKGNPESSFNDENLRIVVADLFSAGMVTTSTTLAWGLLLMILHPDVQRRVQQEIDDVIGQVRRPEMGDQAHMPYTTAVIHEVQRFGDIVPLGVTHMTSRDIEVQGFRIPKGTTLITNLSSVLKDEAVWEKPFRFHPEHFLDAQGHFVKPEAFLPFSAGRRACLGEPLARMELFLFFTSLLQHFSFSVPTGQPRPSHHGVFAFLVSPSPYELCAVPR
- experiment notes: Inhibition of CYP2D6 (unknown origin) at 10 uM relative to control
- Format: ADME
measurement type: inhibition at 10 µM (%)
Numbers only, in %.

Worked cases, inhibition at 10 µM given:
compound="NC(c1cccc(Cl)c1)c1nc2ccc(-c3cn[nH]c3)cc2c(=O)[nH]1 (configuration not stated)" result_units=% experimental_result=89
compound=CN(C)c1nc([C@@H]2CNC[C@H]2c2ccccc2)nc2ccc(-c3cn[nH]c3)cc12 result_units=% experimental_result=88
compound=N[C@@H](Cc1ccc(Cl)cc1)c1nc2ccc(-c3cn[nH]c3)cc2c(=O)[nH]1 result_units=% experimental_result=78
compound=O=c1[nH]c([C@@H]2CNC[C@H]2c2ccc(Cl)cc2)nc2ccc(-c3cn[nH]c3)cc12 result_units=% experimental_result=75
compound="COc1ccc(C(N)c2nc3ccc(-c4cn[nH]c4)cc3c(=O)[nH]2)cc1 (configuration not stated)" result_units=% experimental_result=36
compound="CN(C)CC(=O)NC(c1ccc(Cl)cc1)c1nc2ccc(-c3cn[nH]c3)cc2c(=O)[nH]1 (configuration not stated)" result_units=% experimental_result=55

The record that follows has no inhibition at 10 µM shown yet.
Record `N[C@H](Cc1ccc(F)cc1)c1nc2ccc(-c3cn[nH]c3)cc2c(=O)[nH]1` . Reported inhibition at 10 µM: 89

====

- tgt: Rho-associated protein kinase 2 (Homo sapiens)
- Sequence (O75116 whole entry): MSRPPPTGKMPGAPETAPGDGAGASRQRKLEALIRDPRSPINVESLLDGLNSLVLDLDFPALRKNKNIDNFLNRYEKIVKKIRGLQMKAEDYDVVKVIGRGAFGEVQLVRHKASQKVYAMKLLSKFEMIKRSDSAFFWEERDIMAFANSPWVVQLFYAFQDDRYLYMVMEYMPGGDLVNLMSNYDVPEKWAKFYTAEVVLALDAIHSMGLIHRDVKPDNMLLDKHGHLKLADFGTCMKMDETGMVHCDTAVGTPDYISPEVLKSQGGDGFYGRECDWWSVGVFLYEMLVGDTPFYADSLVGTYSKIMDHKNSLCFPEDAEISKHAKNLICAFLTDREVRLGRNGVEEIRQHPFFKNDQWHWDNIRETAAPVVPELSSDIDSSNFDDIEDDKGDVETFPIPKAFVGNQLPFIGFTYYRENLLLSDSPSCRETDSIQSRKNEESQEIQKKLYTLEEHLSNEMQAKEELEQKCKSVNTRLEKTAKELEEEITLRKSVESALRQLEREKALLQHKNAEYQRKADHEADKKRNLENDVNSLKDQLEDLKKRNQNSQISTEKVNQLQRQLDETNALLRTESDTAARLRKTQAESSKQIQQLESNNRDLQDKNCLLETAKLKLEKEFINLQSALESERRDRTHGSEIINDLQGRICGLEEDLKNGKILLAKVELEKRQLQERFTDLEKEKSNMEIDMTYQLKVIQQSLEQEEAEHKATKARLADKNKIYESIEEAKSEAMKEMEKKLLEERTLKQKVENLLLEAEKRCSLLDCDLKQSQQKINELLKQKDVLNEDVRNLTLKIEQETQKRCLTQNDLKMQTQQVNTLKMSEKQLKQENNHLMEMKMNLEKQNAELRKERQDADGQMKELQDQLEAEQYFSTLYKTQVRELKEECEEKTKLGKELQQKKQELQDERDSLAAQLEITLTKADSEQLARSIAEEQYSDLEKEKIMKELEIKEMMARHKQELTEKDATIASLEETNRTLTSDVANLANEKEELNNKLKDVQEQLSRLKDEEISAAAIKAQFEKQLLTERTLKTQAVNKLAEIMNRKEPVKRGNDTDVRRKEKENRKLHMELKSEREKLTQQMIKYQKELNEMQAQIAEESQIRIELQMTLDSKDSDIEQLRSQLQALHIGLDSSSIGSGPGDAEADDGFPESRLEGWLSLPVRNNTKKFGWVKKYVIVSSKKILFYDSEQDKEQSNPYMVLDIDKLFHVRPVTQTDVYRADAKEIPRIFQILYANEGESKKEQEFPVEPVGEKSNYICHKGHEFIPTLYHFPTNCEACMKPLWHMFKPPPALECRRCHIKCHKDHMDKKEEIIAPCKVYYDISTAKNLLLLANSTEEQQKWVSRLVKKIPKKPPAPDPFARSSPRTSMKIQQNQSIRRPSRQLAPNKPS
- experiment notes: Inhibition of human recombinant 6-His-tagged ROCK2 expressed in baculovirus-infected Sf9 cells using LCB-AKRRRLSSLRA-NH2 as substrate after 25 mins by TR-FRET assay
measurement type: pIC50
Give bare numbers, as −log10 of the molar value.

compound=CCN[C@H](Cc1ccc(Cl)cc1)c1nc2ccc(-c3cn[nH]c3)cc2c(=O)[nH]1 measurement_type=pIC50 experimental_result=7.85
compound=COc1cc(-c2cn[nH]c2)cc2c(=O)[nH]c([C@H](N)Cc3cccc(F)c3)nc12 measurement_type=pIC50 experimental_result=8.15
compound="NC(c1ccc(Cl)cc1)c1nc2ccc(-c3cn[nH]c3)cc2c(=O)[nH]1 (centres undefined)" measurement_type=pIC50 experimental_result=8.00
compound=CN(C)CCN(C)c1nc([C@H](N)Cc2cccc(F)c2)nc2ccc(-c3cn[nH]c3)cc12 measurement_type=pIC50 experimental_result=6.20
compound=O=C(Cc1cccnc1)N[C@H](Cc1ccc(Cl)cc1)c1nc2ccc(-c3cn[nH]c3)cc2c(=O)[nH]1 measurement_type=pIC50 experimental_result=6.62

Each compound below has a recorded value; state its pIC50.
1. N[C@@H](Cc1ccc(F)cc1)c1nc2ccc(-c3cn[nH]c3)cc2c(=O)[nH]1
2. N[C@@H](Cc1ccc(Cl)cc1)c1nc2ccc(-c3cn[nH]c3)cc2c(=O)[nH]1
3. C[N+]1(C)C[C@@H](c2ccccc2)[C@H](c2nc3ccc(-c4cn[nH]c4)cc3c(=O)[nH]2)C1

8.05
8.22
8.40

Each compound below has a recorded value; state its pIC50.
1. O=c1[nH]c([C@@H]2CNC[C@H]2c2ccc(F)cc2)nc2ccc(-c3cn[nH]c3)cc12
2. N[C@H](Cc1cccc(C(F)(F)F)c1)c1nc2ccc(-c3cn[nH]c3)cc2c(=O)[nH]1

1. 8.70
2. 7.80

Each compound below has a recorded value; state its pIC50.
1. COc1ccc([C@@H]2CN(C)C[C@H]2c2nc3ccc(-c4cn[nH]c4)cc3c(=O)[nH]2)cc1
2. O=c1[nH]c([C@@H]2CNC[C@H]2c2ccccc2)nc2ccc(-c3ccncc3)cc12
3. CN(C)c1nc([C@@H](N)Cc2cccc(F)c2)nc2ccc(-c3cn[nH]c3)cc12
4. O=c1[nH]c([C@@H]2CNC[C@H]2c2ccccc2)nc2ccc(-c3cn[nH]c3)cc12

1: 8.30; 2: 7.64; 3: 7.17; 4: 9.00

Each compound below has a recorded value; state its pIC50.
1. COc1cc(-c2cn[nH]c2)cc2c(=O)[nH]c(C(N)c3cccc(Cl)c3)nc12 (centres undefined)
2. CN(C)CCNc1nc([C@@H]2CNC[C@H]2c2ccc(F)cc2)nc2ccc(-c3cn[nH]c3)cc12
3. N[C@@H](Cc1ccccc1)c1nc2ccc(-c3cn[nH]c3)cc2c(=O)[nH]1

[8.10, 6.43, 7.92]

Each compound below has a recorded value; state its pIC50.
1. NCc1ccc(C(=O)NC(c2ccc(Cl)cc2)c2nc3ccc(-c4cn[nH]c4)cc3c(=O)[nH]2)cc1 (centres undefined)
2. NCc1cccc(C(=O)NC(c2ccc(Cl)cc2)c2nc3ccc(-c4cn[nH]c4)cc3c(=O)[nH]2)c1 (centres undefined)
3. N[C@H](Cc1ccc(F)cc1)c1nc2ccc(-c3cn[nH]c3)cc2c(=O)[nH]1
4. COc1ccc(C(N)c2nc3ccc(-c4cn[nH]c4)cc3c(=O)[nH]2)cc1 (centres undefined)
5. NCCC(=O)NC(c1ccc(Cl)cc1)c1nc2ccc(-c3cn[nH]c3)cc2c(=O)[nH]1 (centres undefined)
6. CN(CCCO)c1nc([C@H](N)Cc2cccc(F)c2)nc2ccc(-c3cn[nH]c3)cc12
7. N[C@@H](Cc1ccccc1)c1nc2ccc(-c3ccncc3)cc2c(=O)[nH]1

1. 7.74
2. 7.70
3. 8.10
4. 7.37
5. 8.22
6. 6.80
7. 7.28

Each compound below has a recorded value; state its pIC50.
1. Nc1nccc(-c2ccc3nc([C@@H]4CNC[C@H]4c4ccccc4)[nH]c(=O)c3c2)n1
2. COc1ccc(C[C@H](N)c2nc3ccc(-c4cn[nH]c4)cc3c(=O)[nH]2)cc1
3. N[C@H](Cc1ccc(F)c(F)c1)c1nc2ccc(-c3cn[nH]c3)cc2c(=O)[nH]1

1. 8.22
2. 8.40
3. 8.15

Record `COc1cc(-c2cn[nH]c2)cc2c(=O)[nH]c([C@@H](N)Cc3cccc(F)c3)nc12` . Reported pIC50: 8.10
